# measurement notes: Adsorption of synthetic peptide to silicon particles, Langmuir adsorption isotherm fitting
# Assay type: binding
# condition parameters: Si, read-out: Kd (dissociation constant)
reported property: Kd (µM)
Note: unit µM is implicit; provide only the numeric part.

Q) Need Kd of RALPDA [SEQ ID NO: 2] , thanks.
A) 13.2

###

# measurement notes: Binding ability of phage clones to silicon particles
# condition parameters: peptide expressed on phage clone
reported property: binding ability to silicon

• RALPDA [SEQ ID NO: 2] = binds

###

# measurement notes: Binding ability of phage clones to titanium particles (eluted phage titer / added phage titer)
# condition parameters: peptide expressed on phage clone; titanium particles; mutants compared with SEQ ID NO: 3 clone
reported property: binding ability to titanium

- SEQ ID NO: 4: e3-2-3 mutant, 1st amino acid residue substituted by Ala (AKLPDAPGMHTW): significantly impaired
- SEQ ID NO: 8: e3-2-3 mutant, 5th amino acid residue substituted by Ala (RKLPAAPGMHTW): significantly impaired
- RALPDA [SEQ ID NO: 2]: binds
